test system: HCT-116; assay: NCI 60 panel: HCT-116 (Colon Cancer); format: cell-based; settings: read-out: LC50 (the source's name)
Readout Kind: CC50

| Compound | Experimental Target | Reported Result |
| --- | --- | --- |
| COc1ccccc1Nc1nc(-c2cc3cccc(N)c3oc2=O)cs1 [Compound DBM 228] | HCT-116 | > 100 µM |

* * *

system: SK-MEL-5; experiment: NCI 60 panel: SK-MEL-5 (Melanoma); assay type: cell-based; settings: read-out: LC50 (the source's name)
Readout Kind: CC50

| Compound | Reported Result |
| --- | --- |
| COc1ccccc1Nc1nc(-c2cc3cccc(N)c3oc2=O)cs1 [Compound DBM 228] | 26.8 µM |

* * *

test system: SF-268; experiment: NCI 60 panel: SF-268 (CNS Cancer); assay type: cell-based; settings: read-out: LC50 (the source's name)
Readout Kind: CC50

| Compound | Readout Kind | Reported Result |
| --- | --- | --- |
| COc1ccccc1Nc1nc(-c2cc3cccc(N)c3oc2=O)cs1 [Compound DBM 228] | CC50 | > 100 µM |

* * *

system: SNB-19; test: NCI 60 panel: SNB-19 (CNS Cancer); format: cell-based; conditions: read-out: LC50 (the source's name)
Readout Kind: CC50

| Smiles Data | Reported Result |
| --- | --- |
| COc1ccccc1Nc1nc(-c2cc3cccc(N)c3oc2=O)cs1 | > 100 µM |

* * *

test system: SNB-75; experiment: NCI 60 panel: SNB-75 (CNS Cancer); assay type: cell-based; settings: read-out: LC50 (the source's name)
Readout Kind: CC50

| Smiles Data | Experimental Target | Reported Result |
| --- | --- | --- |
| COc1ccccc1Nc1nc(-c2cc3cccc(N)c3oc2=O)cs1 | SNB-75 | > 100 µM |

* * *

tested on: A498; assay: NCI 60 panel: A498 (Renal Cancer); format: cell-based; settings: read-out: LC50 (the source's name)
Readout Kind: CC50

| Smiles Data | Readout Kind | Reported Result |
| --- | --- | --- |
| COc1ccccc1Nc1nc(-c2cc3cccc(N)c3oc2=O)cs1 | CC50 | > 100 µM |

* * *

tested on: K-562; experiment: NCI 60 panel: K-562 (Leukemia); assay type: cell-based; details: read-out: LC50 (the source's name)
Readout Kind: CC50

| Smiles Data | Reported Result |
| --- | --- |
| COc1ccccc1Nc1nc(-c2cc3cccc(N)c3oc2=O)cs1 | > 100 µM |

* * *

test system: OVCAR-8; experiment: NCI 60 panel: OVCAR-8 (Ovarian Cancer); format: cell-based; conditions: read-out: LC50 (the source's name)
Readout Kind: CC50

| Molecule | Experimental Target | Reported Result |
| --- | --- | --- |
| COc1ccccc1Nc1nc(-c2cc3cccc(N)c3oc2=O)cs1 [Compound DBM 228] | OVCAR-8 | > 100 µM |

* * *

tested on: HL-60; assay: NCI 60 panel: HL-60 (Leukemia); format: cell-based; details: read-out: LC50 (the source's name)
Readout Kind: CC50 (nM)

| Smiles Data | Reported Result |
| --- | --- |
| COc1ccccc1Nc1nc(-c2cc3cccc(N)c3oc2=O)cs1 | 825 |
